Tested System: A2A adenosine receptors (PC12 cells) (Rattus norvegicus)
Sequence (P30543 whole entry): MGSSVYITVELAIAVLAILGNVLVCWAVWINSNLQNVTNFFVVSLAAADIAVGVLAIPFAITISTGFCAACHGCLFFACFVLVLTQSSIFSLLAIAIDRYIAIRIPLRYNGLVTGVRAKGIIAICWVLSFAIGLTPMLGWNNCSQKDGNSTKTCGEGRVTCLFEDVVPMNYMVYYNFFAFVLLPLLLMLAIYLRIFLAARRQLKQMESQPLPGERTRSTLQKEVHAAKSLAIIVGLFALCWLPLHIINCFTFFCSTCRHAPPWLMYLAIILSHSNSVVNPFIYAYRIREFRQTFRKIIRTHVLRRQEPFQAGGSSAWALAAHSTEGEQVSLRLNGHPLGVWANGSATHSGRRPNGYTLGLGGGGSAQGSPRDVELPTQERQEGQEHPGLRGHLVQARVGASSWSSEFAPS
Protocol Text: cAMP accumulation in PC12 cells
Condition Info: EC50, cAMP Accumulation (PC12 cells)
pEC50: −log10 of the molar value.
Measured Metric: pEC50

Compound: Nc1nc(C#CCOc2ccccc2)nc2c1ncn2C1O[C@@H](CO)[C@H](O)[C@@H]1O (stereo partly shown)
Value: 8.18

====

Test system: rat isolated perfused heart
Protocol Text: Reversal time of coronary vasodilation in rat isolated perfused hearts;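 note: each agonist bolused at its minimal concentration giving equal maximal coronary conductance rise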
Condition Info: bolus, rat isolated perfused heart
Method: FIG. 10. Reversal of effect of agonist stimulation on CC. […] CC was measured at 8, 16 and 24 minutes after administration (FIG. 10A). […] R and N are the correlation coefficient and number of agonists, respectively. The relationship between the affinity of agonists for the A2A receptor and the rate of reversal of agonist-mediated responses (coronary vasodilation in heart and cAMP accumulation in PC12 cells) upon termination of drug administration were determined. […]
Property: t0.9, time to 90% reversal of the increase in coronary conductance; scope: individual molecules
Measured Metric: t0.9, time to 90% reversal of the increase in coronary conductance (min)

Molecule: CCCCC#Cc1nc(N)c2ncn([C@@H]3O[C@H](C(=O)NCC)[C@@H](O)[C@H]3O)c2n1 [HENECA, 2-hexynyladenosine-5′-N-ethyl-, reference compound]
Tested System: rat isolated perfused heart
Value: 32.8
--
Molecule: CCCCCCC#Cc1nc(N)c2ncn([C@@H]3O[C@H](CO)[C@@H](O)[C@H]3O)c2n1 [YT-146, reference compound]
Tested System: rat isolated perfused heart
Value: 25.8
--
Molecule: Nc1nc(-c2cnn(Cc3ccccc3)c2)nc2c1ncn2C1O[C@@H](CO)[C@H](O)[C@@H]1O (stereo partly drawn) [CVT-3032]
Tested System: rat isolated perfused heart
Value: 9.8

FYI, the data here is from patent US20050175535A1.
